# MIC E. coli W3110 annotations
- System: E. coli W3110
- Condition Details: supplementary CSV; ranges of Table 1 given as one number
Give a bare numeral; the unit mg/L is implied.

Examples from the recorded data:
1) CC(C)C[C@H](NC(=O)[C@H](CC(C)C)NC(=O)[C@H](CC(C)C)NC(=O)[C@H](CCCCN)NC(=O)[C@H](CC(C)C)NC(=O)[C@@H](CC(C)C)NC(=O)[C@H](CCCCN)NC(=O)[C@@H](CC(C)C)NC(=O)[C@@H](CC(C)C)NC(=O)[C@@H](CCCCN)NC(=O)[C@@H](N)CCCCN)C(N)=O :: 3
2) CC(C)C[C@H](NC(=O)[C@H](CCCCN)NC(=O)[C@H](CC(C)C)NC(=O)[C@H](CC(C)C)NC(=O)[C@@H](CCCCN)NC(=O)[C@H](N)CCCCN)C(=O)N[C@@H](CC(C)C)C(=O)N[C@@H](CCCCN)C(=O)N[C@@H](CC(C)C)C(=O)N[C@H](CC(C)C)C(=O)N[C@H](CC(C)C)C(N)=O :: 6

Proceeding to the next compound to report its MIC E. coli W3110.
Input CC(C)C[C@H](NC(=O)[C@H](CC(C)C)NC(=O)[C@H](CC(C)C)NC(=O)[C@@H](CCCCN)NC(=O)[C@@H](CC(C)C)NC(=O)[C@@H](CC(C)C)NC(=O)[C@@H](CCCCN)NC(=O)[C@H](CC(C)C)NC(=O)[C@H](CC(C)C)NC(=O)[C@H](CCCCN)NC(=O)[C@@H](N)CCCCN)C(N)=O . Output MIC E. coli W3110: 6
